Taken from PubChem BioAssay (NCI).

test system: OVCAR-5 ovarian; experiment: NCI-60 one-dose screen, 48 h (100 = growth as untreated, 0 = no growth, -100 = all killed); settings: 10 µM unless noted
This is part of a sample that, as a whole, favours compounds with a hit. Of some 83,000 tested, about 20% had one in any assay. Active and inactive are the calls of the source. Rule for the calls: active = growth percent below 10; inactive = the rest.
Reported values of growth for individual entries
metricName: growth

INSERT INTO assay_data (molecule, result) VALUES
  ('O=C1c2ccccc2C(=O)N1[N+](=O)[O-]', '112% (inactive)'),
  ('Oc1ccc(Br)cc1CN1CCN(Cc2ccc(Cl)cc2)CC1', '97.7% (inactive)'),
  ('C1CNC2CCCC2C1 (stereo unspecified)', '103% (inactive)'),
  ('CNC(=O)Oc1cc(C(C)C)ccc1Sc1ccc(C(C)C)cc1OC(=O)NC', '95.7% (inactive)'),
  ('CC[C@H](C)[C@H](NC(=O)Nc1ccccc1)C(=O)N(C)[C@H](C[C@@H](OC(C)=O)c1nc(C(=O)N[C@@H](Cc2ccccc2)C[C@H](C)C(=O)OC)cs1)C(C)C', '28.9% (inactive)'),
  ('C=CCC1(CC)C(=O)NC(=S)NC1=O', '101% (inactive)'),
  ('Nc1c(Br)cc2c3c(cccc13)-c1ccccc1-2', '76.8% (inactive)'),
  ('CNc1ccc(C(=O)CC(O)CCC(C)C2OC(=O)CC(O)CC(=O)CC(O)CC(O)CC(O)CC(O)CC3(O)CC(O)C(C(=O)OC)C(CC(O[C@@H]4O[C@H](C)[C@@H](O)[C@H](N)[C@@H]4O)/C=C/C=C/C=C/C=C/C=C/C=C/C=C/C2C)O3)cc1 (stereo partly specified)', '-9.42% (active)'),
  ('ClCCN(CCCl)C(c1ccccc1)c1ccc(Cl)cc1 (stereo unspecified)', '118% (inactive)'),
  ('O=C(/C=C/c1ccccc1)N[C@@H](CO)Cc1cnc[nH]1', '98.3% (inactive)'),
  ('C=CCc1ccc(OC(=O)Cc2ccccc2)c(OC)c1', '110% (inactive)');

###

Reported values of growth for individual entries
system: SF-295 CNS; assay: NCI-60 one-dose screen, 48 h (100 = growth as untreated, 0 = no growth, -100 = all killed); conditions: 10 µM unless noted
About 83,000 compounds went through this panel and 20% of them were active in at least one assay; those are over-represented in the sample as a whole.
metricName: growth (%)

INSERT INTO assay_data (compound, quantitativereadout) VALUES
  ('C/C(=C\C(=O)O[C@H]1[C@@H]2[C@H](C)CC[C@H]2[C@]2(C)O[C@@]1(C1CCCCC1)C[C@H]2OC(=O)CO)c1ccccc1', 50.5),
  ('CO[C@@H]([CH2][Hg][S]C#N)[C@@H]([CH2][Hg][S]C#N)OC', 113),
  ('CC(C)(C)N(Cc1ccccc1)N=O', 100),
  ('CCC[CH2][Sn]([CH2]CCC)([CH2]CCC)[O]C(=O)CC', -81.4),
  ('CCCCNCCc1ccccn1', 100),
  ('CNc1ccc(C(=O)CC(O)CCC(C)C2OC(=O)CC(O)CC(=O)CC(O)CC(O)CC(O)CC(O)CC3(O)CC(O)C(C(=O)OC)C(CC(O[C@@H]4O[C@H](C)[C@@H](O)[C@H](N)[C@@H]4O)/C=C/C=C/C=C/C=C/C=C/C=C/C=C/C2C)O3)cc1 (stereo not given in full)', 20.2),
  ('CCCCCN(CCCCC)CC(O)c1ccc(C)c(Cl)c1 (stereo not given)', 87),
  ('Cc1cc(C)nc(C)c1.[Cl][Hg][Cl]', 94.9),
  ('Cc1cc(CCl)c(C)cc1CCl', 25.7),
  ('CN(C)P1(N(C)C)=NP(N(C)C)(N(C)C)=NP(N(C)C)(N(C)C)=N1', 101);

###

Test system: PC-3 prostate
Test: NCI-60 one-dose screen, 48 h
Conditions: 10 µM unless noted
Method: Growth inhibition of the PC-3 human tumor cell line is measured as a screen for anti-cancer activity. Cells are grown in 96 well plates and exposed to the test compound for 48 hours. Compounds are tested at a single concentration, which is 10^-5 M for most compounds. The reported endpoint is percent growth (GI% or GIPRCNT), where numbers from 0 - 100% represent growth inhibition, and numbers from -100% - 0 represent cell death. For example, a value of 40 represents 60% growth inhibition. […]
About 83,000 compounds went through this panel and 20% of them were active in at least one assay; those are over-represented in the sample as a whole. Calls of active or inactive are those of the source. Rule for the calls: active = growth percent below 10; inactive = the rest.
Classes used: active, inactive

INSERT INTO assay_data (compound, class) VALUES
  ('CCN1CC2(CN(CC)C1=S)C(=O)NC(=O)NC2=O', 'inactive'),
  ('COP(=S)(OC)Oc1ccc(SC)c(C)c1', 'inactive'),
  ('N#CC1c2ccccc2C=CN1C(=O)c1ccc(N(CCCl)CCCl)cc1 (configuration not stated)', 'inactive'),
  ('Cc1ccccc1O', 'inactive'),
  ('Fc1ccc(C2=NN(c3ccccc3)C(c3sc(N(CCCl)CCCl)nc3Cl)C2)cc1 (configuration not stated)', 'inactive'),
  ('CC(C)N=C(NC(C)C)N1CC1', 'inactive'),
  ('COc1ccc(OC)c(/C=C(/C)[N+](=O)[O-])c1', 'inactive'),
  ('CC12CCC3C(CC=C4CC(O)CCC43C)C1C/C(=C\N1CCOCC1)C2=O (configuration not stated)', 'inactive'),
  ('O=[N+]([O-])c1cc([N+](=O)[O-])c(Cl)c(Cl)c1Cl', 'inactive'),
  ('O=[N+]([O-])c1cccc([As]=[As]c2cccc([N+](=O)[O-])c2)c1 (configuration not stated)', 'active'),
  ('COC(=O)C(=[N+]=[N-])C(=O)OC', 'inactive'),
  ('COC1=CC(=O)OC(CCc2ccc3c(c2)OCO3)C1 (configuration not stated)', 'inactive'),
  ('CC(/C=N/N=C(N)N)=N/N=C(N)N', 'inactive'),
  ('CSc1ccccc1NP1(=O)OCC(C)([N+](=O)[O-])CO1 (configuration not stated)', 'inactive'),
  ('CN1CCN(C(=O)COc2ccc(/C=C3\CC4C5CC=C6CC(Cl)CCC6(C)C5CCC4(C)C3=O)cc2)CC1 (configuration not stated)', 'inactive'),
  ('COC(=O)C1CC2c3ccccc3C1c1ccccc12 (configuration not stated)', 'inactive'),
  ('C[C@]12CCC(=O)CC1CC[C@@H]1C2CC[C@@]2(C)C1CC[C@@H]2OC(=O)CC[Se][Se]CCC(=O)O[C@H]1CCC2[C@@H]3CCC4CC(=O)CC[C@]4(C)C3CC[C@@]21C (some centres not stated)', 'inactive'),
  ('CC(C)(O)/C=C/C(=O)[C@](C)(O)[C@H]1[C@H](O)C[C@@]2(C)[C@@H]3CC=C4[C@@H](C=C(O)C(=O)C4(C)C)[C@]3(C)C(=O)C[C@]12C', 'active'),
  ('CC(=O)N(C)C1=Nc2ccc(Cl)cc2C(c2ccccc2)=[N+]([O-])C1', 'inactive'),
  ('CNC(=O)Oc1cc(C(C)C)ccc1Sc1ccc(C(C)C)cc1OC(=O)NC', 'inactive'),
  ('CCC(C)/C=C(C)/C=C/C(=O)c1c(O)c(-c2ccc(O)cc2)c[nH]c1=O (configuration not stated)', 'inactive'),
  ('O=CC(Br)C(Br)c1ccccc1 (configuration not stated)', 'inactive');

###

system: UACC-257 melanoma; assay: NCI-60 one-dose screen, 48 h (100 = growth as untreated, 0 = no growth, -100 = all killed); conditions: 10 µM unless noted
Compounds without any hit were thinned out: in the full panel of roughly 83,000, 20% have a hit. Activity calls are given as the source filed them. How the source made its calls: active means growth percent below 10; inactive means the rest.
metricName: growth

INSERT INTO measurements (compound, metricname, result) VALUES
  ('O=S(=O)(O)c1ccc(-c2ccc([As](=O)(O)O)cc2)cc1', 'growth', '93.6% (inactive)'),
  ('CC(C)(NC(=O)c1nn(CCCCCF)c2ccccc12)c1ccccc1', 'growth', '77% (inactive)'),
  ('O=S(=O)(F)c1ncnc2nc[nH]c12', 'growth', '105% (inactive)'),
  ('Cc1ccccc1O', 'growth', '106% (inactive)'),
  ('N#Cc1ncc(/N=C/c2ccc(N(CCCl)CCCl)cc2)s1', 'growth', '82.4% (inactive)'),
  ('C=CCN1C(=O)C(CC)(CCC(C)C)C(=O)NC1=S (configuration not stated)', 'growth', '89.5% (inactive)'),
  ('O=C(O)c1cccc(CCl)c1', 'growth', '94.2% (inactive)'),
  ('Oc1ccc2c3c1O[C@H]1c4[nH]c5ccccc5c4C[C@@]4(O)C(C2)N(CC2CC2)CC[C@]314', 'growth', '97.4% (inactive)'),
  ('Cc1cc(N(CCCl)CCCl)ccc1C=Nc1ccc2ccccc2c1', 'growth', '37.8% (inactive)'),
  ('COc1ccc(C(c2ccc(OC)cc2)C(Cl)(Cl)Cl)cc1', 'growth', '78.8% (inactive)'),
  ('c1ccc(CCN2CCCCC2Cc2ccccc2)cc1 (configuration not stated)', 'growth', '98.5% (inactive)'),
  ('O=[N+]([O-])c1ccc(/C=C/C=C/c2ccc(S(=O)(=O)F)cc2)c(Cl)c1', 'growth', '96.5% (inactive)');
